These measurements were taken from patent US11970463B2.

# measurement description: Solubility (Test F), McIlvaine buffer pH 6.5
# Type: physicochemical
# condition set: disodium hydrogenphosphate-citric acid (McIlvaine) buffer, 25 °C, pH 6.5, aqueous buffer, thermodynamic from solid, McIlvaine buffer pH 6.5, 25° C., 24 to 72 h; theoretical maximum 200 μM
Please assign a class to every record based on measured solubility, with ranges low-valued: < 9 µg/mL; mid-valued: ≥ 9 µg/mL and < 20 µg/mL; high-valued: ≥ 20 µg/mL

INSERT INTO measurements (compound, class) VALUES
  ('Cc1ccc2c(-c3ccc(C(F)(F)F)cc3O)nnc(N[C@@H]3CCC[C@H](O)C3)c2n1 [Example 91]', 'low-valued'),
  ('OC[C@@H](O)CNc1nnc(-c2cc(F)c(F)cc2O)c2ccccc12 [Example 3]', 'high-valued'),
  ('Cc1ccc(-c2nnc(NC[C@H](O)CO)c3ccccc23)c(O)c1 [Example 11]', 'high-valued'),
  ('Cc1ccc2c(NC[C@H](O)CO)nnc(-c3ccc(C(F)(F)F)cc3O)c2c1 [Example 15]', 'mid-valued');

Could you tell me which band Cc1ccc(O)c(-c2nnc(NC[C@H](O)CO)c3ccccc23)c1 [Example 13] belongs to? high-valued

Could you tell me which band Oc1cc(C(F)(F)F)cc(F)c1-c1nnc(N[C@@H]2CCC[C@H](O)C2)c2cnccc12 [Example 45] belongs to? mid-valued

Could you tell me which band Oc1cc(C(F)(F)F)ccc1-c1nnc(N[C@H]2CCCC[C@H]2O)c2ccccc12 [Example 25] belongs to? low-valued

Could you tell me which band C[C@]1(O)C[C@@H](Nc2nnc(-c3ccc(OC(F)(F)F)cc3O)c3ccncc23)C1 [Example 63] belongs to? low-valued

Could you tell me which band C[C@]1(O)C[C@@H](Nc2nnc(-c3ccc(Cl)c(F)c3O)c3ccncc23)C1 [Example 65] belongs to? low-valued

----------
# study system: Human NLRP3 (Homo sapiens (Human))
Kindly apply the following: 1 (yes) if IC50 is less than 20 nM, 0 (no) in every other case.

The examples below pair each entry with its known result.
INSERT INTO assay_data (compound, study_system, class) VALUES
  ('Oc1cc(C(F)(F)F)ccc1-c1nnc(N[C@H]2CCC[C@H]2O)c2ccccc12', 'Human NLRP3 (Homo sapiens (Human))', '0 (no)'),
  ('Oc1cc(C(F)(F)F)ccc1-c1nnc(N[C@H]2CC[C@@H](O)C2)c2cnccc12', 'Human NLRP3 (Homo sapiens (Human))', '0 (no)'),
  ('Oc1cc(C(F)(F)F)ccc1-c1nnc(N[C@H]2CCCC[C@H]2O)c2ccccc12', 'Human NLRP3 (Homo sapiens (Human))', '0 (no)'),
  ('C[C@]1(O)C[C@@H](Nc2nnc(-c3ccc(Cl)c(F)c3O)c3ccncc23)C1', 'Human NLRP3 (Homo sapiens (Human))', '0 (no)'),
  ('Oc1cc(C(F)(F)F)cc(F)c1-c1nnc(N[C@@H]2CCC[C@H](O)C2)c2cnccc12', 'Human NLRP3 (Homo sapiens (Human))', '0 (no)');

State whether 20 nM exceeds IC50 recorded for `C[C@]1(O)C[C@@H](Nc2nnc(-c3c(O)cc(C(F)(F)F)cc3F)c3ccncc23)C1` . 0 (no)

State whether 20 nM exceeds IC50 recorded for `Oc1cc(C(F)(F)F)ccc1-c1nnc(N[C@@H]2CC[C@H](O)C2)c2cnccc12` . 1 (yes)

State whether 20 nM exceeds IC50 recorded for `C[C@]1(O)C[C@@H](Nc2nnc(-c3c(O)cc(F)cc3F)c3ccncc23)C1` . 0 (no)

State whether 20 nM exceeds IC50 recorded for `Oc1cc(C(F)(F)F)ccc1-c1nnc(N[C@@H]2CCC[C@H]2O)c2ccccc12` . 0 (no)

State whether 20 nM exceeds IC50 recorded for `Oc1cc(C(F)(F)F)ccc1-c1nnc(N[C@H]2CC[C@H](O)C2)c2ccccc12` . 0 (no)

State whether 20 nM exceeds IC50 recorded for `Oc1cc(C(F)(F)F)ccc1-c1nnc(N[C@@H]2CCCC[C@H]2O)c2ccccc12` . 1 (yes)

State whether 20 nM exceeds IC50 recorded for `Oc1cc(C(F)(F)F)ccc1-c1nnc(N[C@H]2C[C@H](O)C2)c2ccccc12` . 0 (no)

State whether 20 nM exceeds IC50 recorded for `Oc1cc(C(F)(F)F)ccc1-c1nnc(N[C@@H]2CC[C@@H](O)C2)c2ccccc12` . 0 (no)

State whether 20 nM exceeds IC50 recorded for `OC[C@@H](O)CNc1nnc(-c2ccc(OC(F)(F)F)cc2O)c2ccccc12` . 0 (no)

State whether 20 nM exceeds IC50 recorded for `Oc1cc(OC(F)(F)F)ccc1-c1nnc(N[C@@H]2CCCC[C@H]2O)c2cnccc12` . 1 (yes)

State whether 20 nM exceeds IC50 recorded for `Oc1cc(F)ccc1-c1nnc(N[C@@H]2CCCC[C@H]2O)c2cnccc12` . 1 (yes)

----------
Recorded IC50 for the following compounds
# study system: Human NLRP3 (Homo sapiens (Human), UniProt Q96P20)
# Sequence (Q96P20 whole entry): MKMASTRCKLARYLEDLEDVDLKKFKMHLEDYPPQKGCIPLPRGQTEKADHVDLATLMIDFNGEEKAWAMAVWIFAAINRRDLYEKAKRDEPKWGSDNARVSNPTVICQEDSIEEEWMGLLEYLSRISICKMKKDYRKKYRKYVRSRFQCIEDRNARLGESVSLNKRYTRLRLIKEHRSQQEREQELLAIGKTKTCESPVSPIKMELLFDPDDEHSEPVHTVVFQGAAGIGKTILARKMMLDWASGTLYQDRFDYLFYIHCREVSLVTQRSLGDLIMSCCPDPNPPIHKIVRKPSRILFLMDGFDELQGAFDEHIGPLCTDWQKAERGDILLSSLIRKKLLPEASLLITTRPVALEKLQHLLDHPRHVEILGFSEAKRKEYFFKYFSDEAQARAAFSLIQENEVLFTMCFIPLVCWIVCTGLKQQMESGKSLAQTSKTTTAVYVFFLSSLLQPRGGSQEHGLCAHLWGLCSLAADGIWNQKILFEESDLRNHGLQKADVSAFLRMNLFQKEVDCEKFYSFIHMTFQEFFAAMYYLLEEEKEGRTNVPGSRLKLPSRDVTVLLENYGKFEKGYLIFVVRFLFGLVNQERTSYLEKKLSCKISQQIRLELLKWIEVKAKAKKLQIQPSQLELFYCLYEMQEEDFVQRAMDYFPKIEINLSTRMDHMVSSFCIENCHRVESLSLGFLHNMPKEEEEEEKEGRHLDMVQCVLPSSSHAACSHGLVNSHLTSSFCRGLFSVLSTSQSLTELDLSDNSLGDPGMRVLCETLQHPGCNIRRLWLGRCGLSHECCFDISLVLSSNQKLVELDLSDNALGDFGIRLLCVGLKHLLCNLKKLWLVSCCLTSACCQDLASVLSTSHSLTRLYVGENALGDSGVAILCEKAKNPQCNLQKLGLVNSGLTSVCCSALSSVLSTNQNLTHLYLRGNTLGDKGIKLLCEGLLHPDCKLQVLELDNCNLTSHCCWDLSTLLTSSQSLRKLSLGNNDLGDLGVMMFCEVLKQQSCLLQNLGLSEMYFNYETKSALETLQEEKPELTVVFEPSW
# condition set: Test C IC50, IL-1β release, THP-1 cells, LPS 2 μg/mL 24 h, BzATP 1 mM

INSERT INTO assay_data (compound, result) VALUES
  ('C[C@@]1(O)CC[C@@H](Nc2nnc(-c3ccc(C(F)(F)F)cc3O)c3ccncc23)C1 [Example 38]', '0.009 µM'),
  ('Oc1cc(C(F)(F)F)ccc1-c1nnc(N[C@@H]2CC[C@@H](O)C2)c2cnccc12 [Example 59]', '0.005 µM'),
  ('OC[C@@H](O)CNc1nnc(-c2ccc(Cl)c(F)c2O)c2ccccc12 [Example 2]', '0.165 µM'),
  ('CC(C)(O)CNc1nnc(-c2c(O)cc(Cl)cc2F)c2ccncc12 [Example 73]', '0.015 µM'),
  ('OC[C@@H](O)CNc1nnc(-c2c(O)cc(F)cc2F)c2ccccc12 [Example 8]', '0.159 µM');

Entry Oc1cc(C(F)(F)F)cc(F)c1-c1nnc(N[C@@H]2CCCC[C@H]2O)c2cnccc12 [Example 55] , IC50 reported as 0.006 µM

Entry Oc1cc(C(F)(F)F)ccc1-c1nnc(N[C@H]2CCC[C@@H]2O)c2ccccc12 [Example 22] , IC50 reported as 0.187 µM

Entry CC(C)(O)CNc1nnc(-c2ccc(OC(F)(F)F)cc2O)c2ccncc12 [Example 72] , IC50 reported as 0.022 µM

----------
# measurement description: Solubility (Test E)
# Format: physicochemical
Recorded solubility for the following compounds
Use µM as the unit, but write only the number.

Below, each entry is followed by its recorded solubility result.
INSERT INTO results (structure, units_of_measure, numeric_result) VALUES
  ('C[C@]1(O)CC[C@@H](Nc2nnc(-c3ccc(C(F)(F)F)cc3O)c3ccncc23)C1', 'µM', 48),
  ('Oc1cc(C(F)(F)F)ccc1-c1nnc(N[C@@H]2CCC[C@H]2O)c2ccccc12', 'µM', 206),
  ('Oc1cc(C(F)(F)F)ccc1-c1nnc(N[C@@H]2CCC[C@@H]2O)c2ccccc12', 'µM', 171),
  ('Oc1cccc(F)c1-c1nnc(N[C@@H]2CC[C@H](O)C2)c2ccncc12', 'µM', 25),
  ('C[C@]1(O)C[C@H](Nc2nnc(-c3ccc(C(F)(F)F)cc3O)c3ccncc23)C1', 'µM', 20),
  ('C[C@]1(O)C[C@@H](Nc2nnc(-c3ccc(Cl)c(F)c3O)c3ccncc23)C1', 'µM', 11);

Entry `C[C@]1(O)C[C@@H](Nc2nnc(-c3ccc(Cl)cc3O)c3ccncc23)C1` , solubility reported as 44

Entry `Cc1ccc2c(-c3ccc(C(F)(F)F)cc3O)nnc(NC[C@H](O)CO)c2c1` , solubility reported as 135

----------
# measurement description: Solubility (Test F), McIlvaine buffer pH 6.5
# Assay type: physicochemical
# condition set: disodium hydrogenphosphate-citric acid (McIlvaine) buffer, 25 °C, pH 6.5, aqueous buffer, thermodynamic from solid, McIlvaine buffer pH 6.5, 25° C., 24 to 72 h; theoretical maximum 200 μM
recorded metric: log10(solubility) (log10 of the value in µg/mL)
Hi team, quick reminder: these entries are log10 of solubility (µg/mL).

INSERT INTO results (structure, recorded_metric, numeric_result) VALUES
  ('C[C@]1(O)C[C@@H](Nc2nnc(-c3c(O)cc(C(F)(F)F)cc3F)c3ccncc23)C1', 'log10(solubility)', 0.18);

Entry `Oc1cc(C(F)(F)F)ccc1-c1nnc(N[C@H]2CCC[C@H]2O)c2ccccc12` , log10(solubility) reported as 1.16

Entry `C[C@]1(O)C[C@@H](Nc2nnc(-c3c(O)cccc3F)c3ccccc23)C1` , log10(solubility) reported as 1.63

Entry `Oc1cc(Cl)cc(F)c1-c1nnc(N[C@@H]2CCCC[C@H]2O)c2cnccc12` , log10(solubility) reported as 1.57

Entry `Oc1cc(C(F)(F)F)ccc1-c1nnc(N[C@@H]2CCC[C@H]2O)c2ccccc12` , log10(solubility) reported as 0.93

Entry `Oc1cc(OC(F)(F)F)ccc1-c1nnc(N[C@@H]2CCC[C@H](O)C2)c2cnccc12` , log10(solubility) reported as 1.91

Entry `Oc1cc(C2CC2)ccc1-c1nnc(N[C@@H]2CCC[C@H](O)C2)c2cnccc12` , log10(solubility) reported as 1.72
